Where these numbers come from: paper PMC8963254

Test system: E. faecalis ATCC 29212
Type: cell-based, Enterococcus faecalis
Conditions: UTBLP alone, plate with chloramphenicol
Non-standard residues stand in square brackets, D forms with d. Residues, ends and D or L forms follow the SMILES beside them. *: point of attachment. Lys(Me3) = C[N+](C)(C)CCCC[C@H](N)C(=O)O; Lys(Me2) = CN(C)CCCC[C@H](N)C(=O)O; Lys(Me) = CNCCCC[C@H](N)C(=O)O; Octanoyl = CCCCCCCC(=O)*
Assay Endpoint: MICUTBLP (µg/mL)

>>> test_result("CCCCCCCC(=O)N[C@@H](CCCCN)C(=O)NCCCN(CCCNC(=O)[C@H](CCCCN)NC(=O)CCCCCCC)CC(=O)N[C@@H](CCCCN)C(N)=O")
128
>>> test_result("CCCCCCCC(=O)NCCCC[C@H](NC(=O)CCCCCCC)C(=O)N[C@@H](CCCC[N+](C)(C)C)C(=O)N[C@@H](CCCC[N+](C)(C)C)C(=O)N[C@@H](CCCC[N+](C)(C)C)C(=O)N[C@@H](CCCC[N+](C)(C)C)C(N)=O [UTBLP 8] (Octanoyl-K(Octanoyl)[Lys(Me3)][Lys(Me3)][Lys(Me3)][Lys(Me3)]-NH2)")
128
>>> test_result("CCCCCCCC(=O)NCCCC[C@H](NC(=O)CCCCCCC)C(=O)N[C@@H](CCCCN(C)C)C(=O)N[C@@H](CCCCN(C)C)C(=O)N[C@@H](CCCCN(C)C)C(=O)N[C@@H](CCCCN(C)C)C(N)=O [UTBLP 7] (Octanoyl-K(Octanoyl)[Lys(Me2)][Lys(Me2)][Lys(Me2)][Lys(Me2)]-NH2)")
64
>>> test_result("CCCCCCCC(=O)NCCCC[C@H](NC(=O)CCCCCCC)C(=O)N[C@@H](CCCCN)C(=O)N[C@@H](CCCCN)C(=O)N[C@@H](CCCCN)C(=O)N[C@@H](CCCCN)C(N)=O [UTBLP 5] (Octanoyl-K(Octanoyl)KKKK-NH2)")
32
>>> test_result("CCCCCCCC(=O)NCCCC[C@H](NC(=O)CCCCCCC)C(=O)N[C@@H](CCCCNC)C(=O)N[C@@H](CCCCNC)C(=O)N[C@@H](CCCCNC)C(=O)N[C@@H](CCCCNC)C(N)=O [UTBLP 6] (Octanoyl-K(Octanoyl)[Lys(Me)][Lys(Me)][Lys(Me)][Lys(Me)]-NH2)")
32

---

Tested on: A. baumannii AB92247
Assay: microbe, parasite or virus in culture
Type: cell-based, Acinetobacter baumannii
Details: AB92247, 18 h
Residues, ends and D or L forms follow the SMILES beside them. *: point of attachment. Octanoyl = CCCCCCCC(=O)*
Assay Endpoint: MIC

>>> test_result("CCCCCCCC(=O)N[C@@H](CCCCNC)C(=O)NCCCN(CCCNC(=O)[C@H](CCCCNC)NC(=O)CCCCCCC)CC(=O)N[C@@H](CCCCNC)C(N)=O [UTBLP 2]")
"> 128 µg/mL"
>>> test_result("CCCCCCCC(=O)NCCCC[C@H](NC(=O)CCCCCCC)C(=O)N[C@@H](CCCCN)C(=O)N[C@@H](CCCCN)C(=O)N[C@@H](CCCCN)C(=O)N[C@@H](CCCCN)C(N)=O [UTBLP 5] (Octanoyl-K(Octanoyl)KKKK-NH2)")
"32 µg/mL"
>>> test_result("CCCCCCCC(=O)N[C@@H](CCCCN(C)C)C(=O)NCCCN(CCCNC(=O)[C@H](CCCCN(C)C)NC(=O)CCCCCCC)CC(=O)N[C@@H](CCCCN(C)C)C(N)=O [UTBLP 3]")
"> 128 µg/mL"

---

System: P. aeruginosa PAO1
Assay type: cell-based, Pseudomonas aeruginosa
Conditions: UTBLP alone, plate with novobiocin
Residues, ends and D or L forms follow the SMILES beside them. *: point of attachment. Octanoyl = CCCCCCCC(=O)*
Assay Endpoint: MICUTBLP

>>> test_result("CCCCCCCC(=O)NCCCC[C@H](NC(=O)CCCCCCC)C(=O)N[C@@H](CCCCN)C(=O)N[C@@H](CCCCN)C(=O)N[C@@H](CCCCN)C(=O)N[C@@H](CCCCN)C(N)=O [UTBLP 5] (Octanoyl-K(Octanoyl)KKKK-NH2)")
"> 128 µg/mL"

---

Tested on: A. baumannii 92247
Format: cell-based, Acinetobacter baumannii
Conditions: UTBLP alone, plate with rifampicin
Non-standard residues stand in square brackets, D forms with d. Residues, ends and D or L forms follow the SMILES beside them. *: point of attachment. Lys(Me3) = C[N+](C)(C)CCCC[C@H](N)C(=O)O; Lys(Me2) = CN(C)CCCC[C@H](N)C(=O)O; Lys(Me) = CNCCCC[C@H](N)C(=O)O; Octanoyl = CCCCCCCC(=O)*
Assay Endpoint: MICUTBLP

>>> test_result("CCCCCCCC(=O)N[C@@H](CCCCNC)C(=O)NCCCN(CCCNC(=O)[C@H](CCCCNC)NC(=O)CCCCCCC)CC(=O)N[C@@H](CCCCNC)C(N)=O")
"> 128 µg/mL"
>>> test_result("CCCCCCCC(=O)N[C@@H](CCCCN(C)C)C(=O)NCCCN(CCCNC(=O)[C@H](CCCCN(C)C)NC(=O)CCCCCCC)CC(=O)N[C@@H](CCCCN(C)C)C(N)=O")
"> 128 µg/mL"
>>> test_result("CCCCCCCC(=O)NCCCC[C@H](NC(=O)CCCCCCC)C(=O)N[C@@H](CCCC[N+](C)(C)C)C(=O)N[C@@H](CCCC[N+](C)(C)C)C(=O)N[C@@H](CCCC[N+](C)(C)C)C(=O)N[C@@H](CCCC[N+](C)(C)C)C(N)=O [UTBLP 8] (Octanoyl-K(Octanoyl)[Lys(Me3)][Lys(Me3)][Lys(Me3)][Lys(Me3)]-NH2)")
"128 µg/mL"
>>> test_result("CCCCCCCC(=O)NCCCC[C@H](NC(=O)CCCCCCC)C(=O)N[C@@H](CCCCN(C)C)C(=O)N[C@@H](CCCCN(C)C)C(=O)N[C@@H](CCCCN(C)C)C(=O)N[C@@H](CCCCN(C)C)C(N)=O [UTBLP 7] (Octanoyl-K(Octanoyl)[Lys(Me2)][Lys(Me2)][Lys(Me2)][Lys(Me2)]-NH2)")
"32 µg/mL"
>>> test_result("CCCCCCCC(=O)NCCCC[C@H](NC(=O)CCCCCCC)C(=O)N[C@@H](CCCCNC)C(=O)N[C@@H](CCCCNC)C(=O)N[C@@H](CCCCNC)C(=O)N[C@@H](CCCCNC)C(N)=O [UTBLP 6] (Octanoyl-K(Octanoyl)[Lys(Me)][Lys(Me)][Lys(Me)][Lys(Me)]-NH2)")
"32 µg/mL"
>>> test_result("CCCCCCCC(=O)N[C@@H](CCCCN)C(=O)NCCCN(CCCNC(=O)[C@H](CCCCN)NC(=O)CCCCCCC)CC(=O)N[C@@H](CCCCN)C(N)=O")
"64 µg/mL"
>>> test_result("CCCCCCCC(=O)NCCCC[C@H](NC(=O)CCCCCCC)C(=O)N[C@@H](CCCCN)C(=O)N[C@@H](CCCCN)C(=O)N[C@@H](CCCCN)C(=O)N[C@@H](CCCCN)C(N)=O [UTBLP 5] (Octanoyl-K(Octanoyl)KKKK-NH2)")
"32 µg/mL"

---

Tested on: A. baumannii AB027
Assay type: cell-based, Acinetobacter baumannii
Settings: rifampicin in combination with the UTBLP
Non-standard residues stand in square brackets, D forms with d. Residues, ends and D or L forms follow the SMILES beside them. *: point of attachment. Lys(Me3) = C[N+](C)(C)CCCC[C@H](N)C(=O)O; Lys(Me2) = CN(C)CCCC[C@H](N)C(=O)O; Lys(Me) = CNCCCC[C@H](N)C(=O)O; Octanoyl = CCCCCCCC(=O)*
Catalogue of molecules with associated MICantibiotic [MICcombo]
Assay Endpoint: MICantibiotic [MICcombo] (µg/mL)

>>> test_result("CCCCCCCC(=O)NCCCC[C@H](NC(=O)CCCCCCC)C(=O)N[C@@H](CCCC[N+](C)(C)C)C(=O)N[C@@H](CCCC[N+](C)(C)C)C(=O)N[C@@H](CCCC[N+](C)(C)C)C(=O)N[C@@H](CCCC[N+](C)(C)C)C(N)=O [UTBLP 8] (Octanoyl-K(Octanoyl)[Lys(Me3)][Lys(Me3)][Lys(Me3)][Lys(Me3)]-NH2)")
0.25
>>> test_result("CCCCCCCC(=O)N[C@@H](CCCCN)C(=O)NCCCN(CCCNC(=O)[C@H](CCCCN)NC(=O)CCCCCCC)CC(=O)N[C@@H](CCCCN)C(N)=O")
0.063
>>> test_result("CCCCCCCC(=O)NCCCC[C@H](NC(=O)CCCCCCC)C(=O)N[C@@H](CCCCN)C(=O)N[C@@H](CCCCN)C(=O)N[C@@H](CCCCN)C(=O)N[C@@H](CCCCN)C(N)=O [UTBLP 5] (Octanoyl-K(Octanoyl)KKKK-NH2)")
0.016
>>> test_result("CCCCCCCC(=O)N[C@@H](CCCCNC)C(=O)NCCCN(CCCNC(=O)[C@H](CCCCNC)NC(=O)CCCCCCC)CC(=O)N[C@@H](CCCCNC)C(N)=O")
0.063
>>> test_result("CCCCCCCC(=O)NCCCC[C@H](NC(=O)CCCCCCC)C(=O)N[C@@H](CCCCN(C)C)C(=O)N[C@@H](CCCCN(C)C)C(=O)N[C@@H](CCCCN(C)C)C(=O)N[C@@H](CCCCN(C)C)C(N)=O [UTBLP 7] (Octanoyl-K(Octanoyl)[Lys(Me2)][Lys(Me2)][Lys(Me2)][Lys(Me2)]-NH2)")
0.063
>>> test_result("CCCCCCCC(=O)NCCCC[C@H](NC(=O)CCCCCCC)C(=O)N[C@@H](CCCCNC)C(=O)N[C@@H](CCCCNC)C(=O)N[C@@H](CCCCNC)C(=O)N[C@@H](CCCCNC)C(N)=O [UTBLP 6] (Octanoyl-K(Octanoyl)[Lys(Me)][Lys(Me)][Lys(Me)][Lys(Me)]-NH2)")
0.002
>>> test_result("CCCCCCCC(=O)N[C@@H](CCCCN(C)C)C(=O)NCCCN(CCCNC(=O)[C@H](CCCCN(C)C)NC(=O)CCCCCCC)CC(=O)N[C@@H](CCCCN(C)C)C(N)=O")
0.5
